Documented MFI across a set of binders
Target: T1, human CXCR4 (chemokine (C-X-C motif) receptor 4) (human, UniProt P61073 1-352)
T1 construct: Endogenous on human tumour cell lines (Ramos, HPB-ALL, Raji, Jurkat, MM1.S, RPMI-8226, MOLP-8, MOLT-4) or transfected into CHO-K1 cells (DiscoveRx); also called CXCR4 receptor
T1 sequence (P61073 whole entry): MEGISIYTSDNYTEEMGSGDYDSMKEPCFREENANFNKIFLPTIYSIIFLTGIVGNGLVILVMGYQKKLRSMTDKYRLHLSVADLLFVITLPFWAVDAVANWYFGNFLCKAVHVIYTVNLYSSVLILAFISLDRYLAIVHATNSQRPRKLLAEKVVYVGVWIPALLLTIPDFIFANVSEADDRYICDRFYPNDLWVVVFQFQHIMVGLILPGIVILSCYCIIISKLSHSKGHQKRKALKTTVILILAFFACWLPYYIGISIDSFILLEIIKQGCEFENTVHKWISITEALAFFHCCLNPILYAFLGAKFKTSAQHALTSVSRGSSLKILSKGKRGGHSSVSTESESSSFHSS
Assay: flow cytometry on HPB-ALL cells, Fab at 0.25 µg/ml
// return a plain number; no unit text

1) h3G10.1.91 VH / h3G10.2.72 VL Fab (Fab, V domains shown, Tested as Fab) VH: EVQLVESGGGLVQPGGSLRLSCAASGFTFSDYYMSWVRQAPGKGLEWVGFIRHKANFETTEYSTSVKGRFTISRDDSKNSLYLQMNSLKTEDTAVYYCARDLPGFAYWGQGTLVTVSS VL: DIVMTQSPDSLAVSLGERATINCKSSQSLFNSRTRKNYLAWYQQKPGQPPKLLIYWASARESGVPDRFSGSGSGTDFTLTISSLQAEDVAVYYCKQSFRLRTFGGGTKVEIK ... 2670
2) h3G10.2.37 VH / h3G10.2.72 VL Fab (Fab, V domains shown, Tested as Fab) VH: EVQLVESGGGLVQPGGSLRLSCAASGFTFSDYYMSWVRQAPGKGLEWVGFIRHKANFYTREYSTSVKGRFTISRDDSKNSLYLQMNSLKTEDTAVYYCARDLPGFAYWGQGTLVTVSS VL: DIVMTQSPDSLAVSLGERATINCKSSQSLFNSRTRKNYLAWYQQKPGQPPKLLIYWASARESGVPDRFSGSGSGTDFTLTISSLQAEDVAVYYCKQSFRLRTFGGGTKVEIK ... 2920

Kindly review the next binder as well.
Ask: What value of MFI has been reported for the following binder? h3G10.1.33 VH / h3G10.2.72 VL Fab (Fab, V domains shown, Tested as Fab) VH: EVQLVESGGGLVQPGGSLRLSCAASGFTFSDYYMSWVRQAPGKGLEWVGFIRHKANFYTTEYSTSVTGRFTISRDDSKNSLYLQMNSLKTEDTAVYYCARDLPGFAYWGQGTLVTVSS VL: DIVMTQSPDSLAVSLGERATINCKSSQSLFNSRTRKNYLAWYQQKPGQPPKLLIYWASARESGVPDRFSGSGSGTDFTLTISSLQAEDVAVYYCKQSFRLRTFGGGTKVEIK
Result: 848
